Catalogue of pIC50 readings, one per entry.
Biological target: TIE2 intracellular domain/c-fms extracellular domain (TIE2/c-fms) chimeric protein expressing mouse 3T3 cells (Homo sapiens, UniProt Q02763)
Construct: a TIE2 intracellular domain/c-fms extracellular domain (TIE2/c-fms) chimeric protein
Sequence (Q02763 770-1124 limits assumed, change not shown): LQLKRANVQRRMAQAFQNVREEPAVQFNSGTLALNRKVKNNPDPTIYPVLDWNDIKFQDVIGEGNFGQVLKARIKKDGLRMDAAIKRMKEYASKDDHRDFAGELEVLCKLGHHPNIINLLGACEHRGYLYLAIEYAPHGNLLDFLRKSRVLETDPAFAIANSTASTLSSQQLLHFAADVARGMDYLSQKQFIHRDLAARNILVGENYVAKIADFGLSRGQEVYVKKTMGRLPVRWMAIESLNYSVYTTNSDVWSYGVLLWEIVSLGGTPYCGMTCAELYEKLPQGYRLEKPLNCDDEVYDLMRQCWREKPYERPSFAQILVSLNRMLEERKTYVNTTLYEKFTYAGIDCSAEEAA
Assay: TIE-2 autophosphorylation assay (TIE2-C), ELISA
Conditions: TIE2/c-fms 3T3 cells, MCSF activation
pIC50: −log10 of the molar value. Where a name gives a salt, the structure may show the parent alone.
observable: pIC50

* COC(=O)Nc1nc2cc(Oc3cccc(NC(=O)Nc4cc(C(F)(F)F)ccc4F)c3)ccc2[nH]1 | > 7.00
* COC(=O)Nc1nc2cc(Oc3ccc(NC(=S)Nc4cccc(Cl)c4)cc3)ccc2[nH]1 | 5.00 to 6.00
* COC(=O)Nc1nc2ccc(Sc3ccc(NC(=O)Nc4cc(OC)cc(OC)c4)cc3)cc2[nH]1 | > 7.00
* O=C1CCn2c(nc3ccc(Oc4ccc(NC(=O)Nc5cc(C(F)(F)F)ccc5F)cc4)nc32)N1 | > 7.00
* COC(=O)Nc1nc2ccc(Oc3ccc(NC(=O)Nc4cc(C(F)(F)F)ccc4Cl)cc3)nc2[nH]1 [Example 72, dihydrochloride] | > 7.00
* COC(=O)Nc1nc2cc(Oc3ccc(NC(=O)Nc4cc(C(F)(F)F)ccc4F)cn3)ccc2[nH]1 | > 7.00
* COC(=O)Nc1nc2cc(Oc3ccc(NC(=O)Nc4cc(F)cc(C(F)(F)F)c4)cc3)ccc2[nH]1 | > 7.00
* CCOC(=O)Nc1nc2cc(Oc3ccc(NC(=O)Nc4cc(C(F)(F)F)ccc4F)cc3)ccc2[nH]1 | > 7.00
* CN(C)CCOC(=O)Nc1nc2cc(Oc3ccc(NC(=O)Nc4cc(C(F)(F)F)ccc4F)cc3)ccc2[nH]1 | > 7.00
* COC(=O)Nc1nc2cc(Oc3cccc(NC(=O)Nc4cccc(Cl)c4)c3)ccc2[nH]1 [Example 14, hydrochloride] | 6.00 to 7.00
* CC(=O)Nc1nc2cc(Oc3ccc(NC(=O)Nc4cc(C(F)(F)F)ccc4F)nc3)ccc2[nH]1 [Example 36, dihydrochloride] | > 7.00
* COC(=O)Nc1nc2ccc(Oc3ccc(NC(=O)Nc4cc(C(F)(F)F)ccc4F)cc3)cc2n1CCN(C)C | 6.00 to 7.00
* COC(=O)Nc1nc2cc(Sc3ccc(NC(=O)Nc4cc(C(F)(F)F)ccc4Cl)cc3)ccc2[nH]1.Cl [Example 51, hydrochloride] | > 7.00
* COC(=O)Nc1nc2cc([S+]([O-])c3ccc(NC(=O)Nc4cc(Cl)ccc4Cl)cc3)ccc2[nH]1 (stereo not drawn) | 6.00 to 7.00
* COC(=O)Nc1nc2ncc(Oc3ccc(NC(=O)Nc4cc(C(F)(F)F)ccc4F)cc3)cc2[nH]1.Cl [Example 75, dihydrochloride] | > 7.00

---

Target: TIE2 intracellular domain/c-fms extracellular domain (TIE2/c-fms) chimeric protein expressing mouse 3T3 cells (Homo sapiens, UniProt Q02763)
Construct: a TIE2 intracellular domain/c-fms extracellular domain (TIE2/c-fms) chimeric protein
Assay: TIE-2 autophosphorylation assay (TIE2-C), ELISA
Conditions: TIE2/c-fms 3T3 cells, MCSF activation
observable: IC50

• COC(=O)Nc1nc2ccc(Sc3ccc(NC(=O)Nc4cccc(Br)c4)cc3)cc2[nH]1 = 1000 to 10000 nM
• CCc1cccc(NC(=O)Nc2cccc(Oc3ccc4[nH]c(NC(=O)OC)nc4c3)c2)c1 = < 100 nM
• COCCOCC(=O)Nc1nc2ccc(Oc3ccc(NC(=O)Nc4cc(C(F)(F)F)ccc4F)cc3)cc2[nH]1 = < 100 nM
• COC(=O)Nc1nc2cc(Oc3ccc(NC(=O)Nc4cccc(C(C)(C)C)c4)cc3)ccc2[nH]1 = < 100 nM
• CN(C)CC(=O)Nc1nc2cc(Oc3ccc(NC(=O)Nc4cc(C(F)(F)F)ccc4F)cc3)ccc2[nH]1 = < 100 nM
• COC(=O)Nc1nc2ccc(Oc3ccc(NC(=O)Nc4cc(C(F)(F)F)ccc4F)cc3)cc2s1 = < 100 nM
• COC(=O)Nc1nc2cc(Sc3ccc(NC(=O)Nc4cc(Cl)ccc4Cl)cc3)ccc2[nH]1 = 100 to 1000 nM
• CN(C)CCNc1nc2cc(Oc3ccc(NC(=O)Nc4cc(C(F)(F)F)ccc4F)cc3)ccc2[nH]1 = 1000 to 10000 nM
• CN(C)CCCC(=O)Nc1nc2cc(Oc3ccc(NC(=O)Nc4cc(C(F)(F)F)ccc4F)cc3)ccc2[nH]1 = < 100 nM
• COC(=O)Nc1nc2cc(Oc3cccc(NC(=O)Nc4cccc(C(F)(F)F)c4)c3)ccc2[nH]1 = 100 to 1000 nM
• CC(C)(C)OC(=O)NCC(=O)Nc1nc2cc(Oc3ccc(NC(=O)Nc4cc(C(F)(F)F)ccc4F)cc3)ccc2[nH]1 = 100 to 1000 nM
• COC(=O)Nc1nc2cc(Oc3ccc(NC(=O)Nc4cc(F)ccc4F)cc3)ccc2[nH]1 = < 100 nM
• O=C(Nc1ccc(Oc2ccc3nc(NC(=O)c4ccc(-n5cccc5)cc4)[nH]c3c2)cc1)Nc1cc(C(F)(F)F)ccc1F = 1000 to 10000 nM
• COC(=O)Nc1nc2cc(Oc3ccc(NC(=O)Nc4cccc(SC)c4)cc3)ccc2[nH]1 = < 100 nM
• CC(C)(C)OC(=O)Nc1nc2cc(Oc3ccc(NC(=O)Nc4cc(C(F)(F)F)ccc4F)cc3)ccc2[nH]1 = < 100 nM
• O=C(CCc1cccnc1)Nc1nc2cc(Oc3ccc(NC(=O)Nc4cc(C(F)(F)F)ccc4F)cc3)ccc2[nH]1 = < 100 nM

---

Reported IC50 by item:
Target: Recombinant GST-Tie2 (Homo sapiens, UniProt Q02763)
Sequence (Q02763 23-1124): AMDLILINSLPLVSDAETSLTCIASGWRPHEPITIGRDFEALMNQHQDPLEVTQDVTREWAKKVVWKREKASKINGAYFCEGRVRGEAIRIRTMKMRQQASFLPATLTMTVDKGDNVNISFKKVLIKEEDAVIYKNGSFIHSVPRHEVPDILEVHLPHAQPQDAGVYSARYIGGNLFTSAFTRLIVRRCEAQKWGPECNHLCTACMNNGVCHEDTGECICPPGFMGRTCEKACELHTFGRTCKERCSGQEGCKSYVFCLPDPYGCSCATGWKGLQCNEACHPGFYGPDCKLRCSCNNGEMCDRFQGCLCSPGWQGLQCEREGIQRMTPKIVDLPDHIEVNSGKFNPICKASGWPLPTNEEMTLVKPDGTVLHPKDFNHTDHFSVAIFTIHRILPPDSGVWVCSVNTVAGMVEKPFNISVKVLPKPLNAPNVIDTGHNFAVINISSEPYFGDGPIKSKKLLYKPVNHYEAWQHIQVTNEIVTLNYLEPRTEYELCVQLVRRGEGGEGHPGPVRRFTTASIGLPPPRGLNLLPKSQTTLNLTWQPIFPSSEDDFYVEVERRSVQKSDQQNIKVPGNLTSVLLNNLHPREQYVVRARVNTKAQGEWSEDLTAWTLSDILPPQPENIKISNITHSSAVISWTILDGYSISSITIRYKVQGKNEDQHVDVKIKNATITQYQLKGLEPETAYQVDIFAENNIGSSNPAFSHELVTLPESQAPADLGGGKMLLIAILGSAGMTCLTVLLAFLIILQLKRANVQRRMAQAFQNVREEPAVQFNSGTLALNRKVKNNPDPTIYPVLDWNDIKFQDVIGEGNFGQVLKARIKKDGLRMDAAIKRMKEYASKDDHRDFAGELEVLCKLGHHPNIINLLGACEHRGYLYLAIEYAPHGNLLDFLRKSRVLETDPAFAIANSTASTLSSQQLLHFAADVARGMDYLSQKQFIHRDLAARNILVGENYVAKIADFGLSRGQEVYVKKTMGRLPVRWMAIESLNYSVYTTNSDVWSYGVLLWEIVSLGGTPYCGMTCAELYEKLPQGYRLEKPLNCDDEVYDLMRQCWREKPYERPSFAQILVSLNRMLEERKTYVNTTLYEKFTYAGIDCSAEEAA
Assay: Tie2 fluorescence polarization kinase activity assay (TIE2-FP)
Details: starred examples, 200 μM ATP, read-out: TIE2-E (Tie-2 activities run utilizing Tie2-FP assay)
Experimental: Tie2 Fluorescence Polarization Kinase Activity Assay: (TIE2-FP) Activation of Recombinant Tie2 Activation: […] The final assay conditions were 50 mM HEPES, pH 7.5, 5% DMSO (when screening compounds), 200 μM ATP, 5 mM MgCl2, 1 mM DTT, 50 μM sodium vanidate, 1 nM activated enzyme, and 200 μM peptide. IC50's of compounds were measured under subsaturating ATP (200 μM) and varing concentrations of activated Tie2 and peptide substrate ([…]-OH; MW 1873 Da, TFA salt). […]
observable: IC50

* COCCOCC(=O)Nc1nc2cc(Oc3ccc(NC(=O)Nc4nccs4)cc3)ccc2[nH]1 | 1000 to 10000 nM
* COCCOCC(=O)Nc1nc2cc(Oc3ccc(NC(=O)Nc4nnc(C(C)(C)C)s4)cc3)ccc2[nH]1 | < 100 nM
* CCc1nnc(NC(=O)Nc2ccc(Oc3ccc4[nH]c(NC(=O)COCCOC)nc4c3)cc2)s1 | 100 to 1000 nM
* COCCOCC(=O)Nc1nc2cc(Oc3ccc(NC(=O)Nc4nnc(C)s4)cc3)ccc2[nH]1 | 1000 to 10000 nM
* COCCOCC(=O)Nc1nc2cc(Oc3ccc(NC(=O)Nc4nc(C)cs4)cc3)ccc2[nH]1 | 1000 to 10000 nM
* CC(=O)Nc1nc2cc(Oc3ccc(NC(=O)Nc4nc(C(C)(C)C)cs4)cc3)ccc2[nH]1 | 100 to 1000 nM
* COCCOCC(=O)Nc1nc2cc(Oc3ccc(NC(=O)Nc4nc(C(C)(C)C)cs4)cc3)ccc2[nH]1 | 100 to 1000 nM
* COCCOCC(=O)Nc1nc2cc(Oc3ccc(NC(=O)Nc4nncs4)cc3)ccc2[nH]1 | 1000 to 10000 nM

---

Target: GST-VEGFR2 (Homo sapiens, UniProt P35968)
Construct: GST-VEGFR2, baculovirus expressed recombinant constructs of the intracellular domains of human TIE2 tagged by GST
Sequence (P35968 786-1356 limits assumed): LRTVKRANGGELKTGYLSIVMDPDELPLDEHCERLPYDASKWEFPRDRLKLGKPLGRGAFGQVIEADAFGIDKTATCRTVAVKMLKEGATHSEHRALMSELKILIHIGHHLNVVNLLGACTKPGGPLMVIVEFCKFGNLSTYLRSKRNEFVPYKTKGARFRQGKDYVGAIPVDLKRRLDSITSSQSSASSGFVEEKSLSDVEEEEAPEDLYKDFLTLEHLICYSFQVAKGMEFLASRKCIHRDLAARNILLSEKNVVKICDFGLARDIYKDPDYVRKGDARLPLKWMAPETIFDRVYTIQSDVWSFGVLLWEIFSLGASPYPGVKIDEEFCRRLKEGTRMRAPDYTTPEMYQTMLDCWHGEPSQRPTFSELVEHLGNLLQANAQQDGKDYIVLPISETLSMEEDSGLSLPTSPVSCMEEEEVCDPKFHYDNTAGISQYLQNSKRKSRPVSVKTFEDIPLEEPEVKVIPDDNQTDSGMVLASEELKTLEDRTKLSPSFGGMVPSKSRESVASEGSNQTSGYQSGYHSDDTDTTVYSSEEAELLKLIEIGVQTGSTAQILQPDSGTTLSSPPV
Test: VEGF-R2 enzyme assay (VEGF-E), LANCE method
Details: 75 μM ATP
pIC50: −log10 of the molar value.
observable: pIC50

* COC(=O)Nc1nc2cc(Oc3ccc(NC(=S)Nc4cccc(Cl)c4)cc3)ccc2[nH]1 | > 7.00
* COCCOCC(=O)Nc1nc2cc(Oc3ccc(NC(=O)Nc4nnc(C)s4)cc3)ccc2[nH]1 | 6.00 to 7.00
* CCCCNC(=O)Nc1nc2ccc(Oc3ccc(NC(=O)Nc4cc(C(F)(F)F)ccc4F)cc3)cc2s1 | > 7.00
* O=C1CCn2c(nc3ccc(Oc4ccc(NC(=O)Nc5cc(C(F)(F)F)ccc5F)cc4)nc32)N1 | > 7.00
* COCCOCC(=O)Nc1nc2cc(Oc3ccc(NC(=O)Nc4nc(C)cs4)cc3)ccc2[nH]1 | 6.00 to 7.00
* CCc1nnc(NC(=O)Nc2ccc(Oc3ccc4[nH]c(NC(=O)COCCOC)nc4c3)cc2)s1 | > 7.00
* COC(=O)Nc1nc2cc(Oc3ccc(NC(=O)Nc4cc(C(C)(C)C)on4)cc3)ccc2[nH]1 | > 7.00
* COC(=O)Nc1nc2cc(Oc3cccc(NC(=O)Nc4ccccc4Oc4ccccc4)c3)ccc2[nH]1 | > 7.00
* COC(=O)Nc1cn2cc(Oc3ccc(NC(=O)Nc4cc(C(F)(F)F)ccc4F)cc3)ccc2n1 | > 7.00
* COC(=O)Nc1nc2ccc(Sc3ccc(NC(=O)Nc4cccc(Br)c4)cc3)cc2[nH]1 | 6.00 to 7.00
* O=C(Nc1ccc(Oc2ccc3nc(NC(=O)c4cccnc4)[nH]c3c2)cc1)Nc1cc(C(F)(F)F)ccc1F | > 7.00
* CC(=O)Nc1nc2ccc(Oc3ccc(NC(=O)Nc4cc(C(F)(F)F)ccc4F)nc3)cc2n1Cc1ccccc1 | 6.00 to 7.00
* COC(=O)Nc1nc2cc(Oc3cccc(NC(=O)Nc4ccc(Cl)cc4)c3)ccc2[nH]1 | > 7.00
* COC(=O)Nc1nc2cc(Oc3ccc(NC(=O)Nc4cc(C(F)(F)F)ccc4Cl)cn3)ccc2[nH]1 | > 7.00
* Cc1ccc(S(=O)(=O)n2c(N)nc3ccc(Oc4ccc(NC(=O)Nc5cc(C(F)(F)F)ccc5F)cc4)cc32)cc1 | > 7.00
